Reported Bliss excess is given for each of the following molecules.
test system: NCI-H2373 (Mesothelioma); test: Bliss excess, mean over the matrix (fraction); higher = more synergy;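 also: after 72 h of two-drug dosing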

Bliss excess measured on CC1(C)CCC(CN2CCN(c3ccc(C(=O)NS(=O)(=O)c4ccc(NCC5CCOCC5)c([N+](=O)[O-])c4)c(Oc4cnc5[nH]ccc5c4)c3)CC2)=C(c2ccc(Cl)cc2)C1 [Venetoclax] + C=CCn1c(=O)c2cnc(Nc3ccc(N4CCN(C)CC4)cc3)nc2n1-c1cccc(C(C)(C)O)n1 [AZD1775] (first compound max 1 µM, partner max 1 µM) = -0.0789

Bliss excess measured on NC1(C(=O)N[C@@H](CCO)c2ccc(Cl)cc2)CCN(c2ncnc3[nH]ccc23)CC1 [Capivasertib] + C[C@@H]1COCCN1C2=NC(=NC(=C2)C3(CC3)[S@](=N)(=O)C)C4=C5C=CNC5=NC=C4 [AZD6738] (first compound max 10 µM, 7x7, partner max 10 µM) = -0.0301

Bliss excess measured on Cc1c2c(nn1C)CSCc1cc(n(C)n1)CSc1cc(c3ccccc3c1)OCCCc1c(C(=O)O)n(C)c3c-2c(Cl)ccc13 [AZD5991] + C1CN(CCC1(C(=O)N[C@@H](CCO)C2=CC=C(C=C2)Cl)N)C3=NC=NC4=C3C=CN4 [Capivasertib] (first compound max 1 µM, 7x7, partner max 3 µM) = -0.0671

Bliss excess measured on C=CCn1c(=O)c2cnc(Nc3ccc(N4CCN(C)CC4)cc3)nc2n1-c1cccc(C(C)(C)O)n1 [AZD1775] + C1CN(CCC1(C(=O)N[C@@H](CCO)C2=CC=C(C=C2)Cl)N)C3=NC=NC4=C3C=CN4 [Capivasertib] (first compound max 3 µM, partner max 3 µM) = -0.0393

Bliss excess measured on CN(CCO)CC[C@H](CSc1ccccc1)Nc1ccc(S(=O)(=O)NC(=O)c2ccc(N3CCC([C@@H](O)c4ccccc4-c4ccc(Cl)cc4)CC3)cc2)cc1S(=O)(=O)C(F)(F)F [AZD4320] + C=CCn1c(=O)c2cnc(Nc3ccc(N4CCN(C)CC4)cc3)nc2n1-c1cccc(C(C)(C)O)n1 [AZD1775] (first compound max 1 µM, partner max 1 µM) = -0.0089

Bliss excess measured on CC1(C)CCC(CN2CCN(c3ccc(C(=O)NS(=O)(=O)c4ccc(NCC5CCOCC5)c([N+](=O)[O-])c4)c(Oc4cnc5[nH]ccc5c4)c3)CC2)=C(c2ccc(Cl)cc2)C1 [Venetoclax] + C1CN(CCC1(C(=O)N[C@@H](CCO)C2=CC=C(C=C2)Cl)N)C3=NC=NC4=C3C=CN4 [Capivasertib] (first compound max 1 µM, 7x7, partner max 3 µM) = -0.0774

Bliss excess measured on COc1cccc(OCCCN)c1-c1cc(Nc2cnc(C#N)cn2)n[nH]1 [Prexasertib] + CN(C)CCCOc1ccc(-c2ccc3ncc4c(c3c2)n(C2CCOCC2)c(=O)n4C)cn1 [AZD0156] (first compound max 1 µM, 7x7, partner max 1 µM) = 0.0329

Bliss excess measured on CC(=O)c1c(C)c2cnc(Nc3ccc(N4CCNCC4)cn3)nc2n(C2CCCC2)c1=O [Palbociclib] + CN(CC[C@H](CSC1=CC=CC=C1)NC2=C(C=C(C=C2)S(=O)(=O)NC(=O)C3=CC=C(C=C3)N4CCC(CC4)[C@H](C5=CC=CC=C5C6=CC=C(C=C6)Cl)O)S(=O)(=O)C(F)(F)F)CCO [AZD4320] (first compound max 10 µM, 7x7, partner max 1 µM) = -0.0794
